Just for reference, patent US20070032529A1 is where these values come from.

- Tested on: db/db mice
- assay summary: Measuring blood plasma glucose concentration in db/db mice (hypoglycemic effect)
- Format: in vivo
- Design: key: ++: compounds exhibiting statistically significant hypoglycemic effect at a dose of 10 mg/kg or less; +: compounds exhibiting not significant but obvious hypoglycemic effect at a dose of 10 mg/kg
- study conditions: db/db mice fasted 4 h, oral administration, plasma glucose 1 and 3 hours after administration, dose 10 mg/kg or less, Dunnett test vs solvent
result type: vivo (hypoglycemic effect in db/db mice)

Recorded vivo (hypoglycemic effect in db/db mice), per entry:
CCOc1ccc(CNC(=O)c2cc(NC(=O)c3cc(F)c(F)cc3Cl)[nH]n2)cn1 [Example 1-37] : +
Cc1cccc(C)c1CNC(=O)c1cc(NC(=O)c2cc(F)c(F)cc2Cl)[nH]n1 [Example 1-40] : +
COc1ccc(CN(C(=O)c2cc(NC(=O)c3cc(F)c(F)cc3Cl)[nH]n2)C2CC2)cn1 [Example 1-126] : +
Cc1nc(N2CCOCC2)sc1CNC(=O)c1cc(NC(=O)c2cc(F)c(F)cc2Cl)[nH]n1 [Example 1-63] : +
COc1nc(C)ccc1CNC(=O)c1cc(NC(=O)c2cc(F)c(F)cc2Cl)[nH]n1 [Example 2-5] : ++
CN(C)c1ccc(CNC(=O)c2cc(NC(=O)c3cc(F)c(F)cc3Cl)[nH]n2)cc1.Cl [Example 3-29] : +
O=C(NCc1ccc(C(F)(F)F)nc1)c1cc(NC(=O)c2cc(F)c(F)cc2Cl)[nH]n1 [Example 3-40] : ++
CC(C)Oc1ccc(CNC(=O)c2cc(NC(=O)c3cc(F)c(F)cc3Cl)[nH]n2)cn1 [Example 1-31] : +
Cc1ccc(CNC(=O)c2cc(NC(=O)c3cc(F)c(F)cc3Cl)[nH]n2)nc1 [Example 2-10] : +
COc1ccc(CN(CC2CC2)C(=O)c2cc(NC(=O)c3cc(F)c(F)cc3Cl)[nH]n2)cn1 [Example 1-128] : +

So what does the record say about vivo (hypoglycemic effect in db/db mice) for Cc1cccnc1CNC(=O)c1cc(NC(=O)c2cc(F)c(F)cc2Cl)[nH]n1 [Example 2-8] ? +

So what does the record say about vivo (hypoglycemic effect in db/db mice) for C=CCN(C(=O)c1cc(NC(=O)c2cc(F)c(F)cc2Cl)[nH]n1)C1CCCCC1 [Example 1-81] ? +

So what does the record say about vivo (hypoglycemic effect in db/db mice) for O=C(NCc1c(F)cccc1F)c1cc(NC(=O)c2cc(F)c(F)cc2Cl)[nH]n1 [Example 1-21] ? +

So what does the record say about vivo (hypoglycemic effect in db/db mice) for CCCCN(CC)C(=O)c1cc(NC(=O)c2cc(F)c(F)cc2Cl)[nH]n1 [Example 1-87] ? +

So what does the record say about vivo (hypoglycemic effect in db/db mice) for CN(C(=O)c1cc(NC(=O)c2cc(F)c(F)cc2Cl)[nH]n1)c1ccc(C(=O)O)cc1 [Example 4-2] ? ++

So what does the record say about vivo (hypoglycemic effect in db/db mice) for CCCN(Cc1ccc(N(C)C)nc1)C(=O)c1cc(NC(=O)c2cc(F)c(F)cc2Cl)[nH]n1 [Example 1-130] ? +

So what does the record say about vivo (hypoglycemic effect in db/db mice) for O=C(NCc1cccs1)c1cc(NC(=O)c2cc(F)c(F)cc2Cl)[nH]n1 [Example 3-26] ? +

So what does the record say about vivo (hypoglycemic effect in db/db mice) for O=C(NCc1cccnc1Cl)c1cc(NC(=O)c2cc(F)c(F)cc2Cl)[nH]n1 [Example 2-24] ? +

So what does the record say about vivo (hypoglycemic effect in db/db mice) for COc1cccc(CNC(=O)c2cc(NC(=O)c3cc(F)c(F)cc3Cl)[nH]n2)c1 [Example 1-67] ? +

So what does the record say about vivo (hypoglycemic effect in db/db mice) for Cc1nn(C)c(C)c1CNC(=O)c1cc(NC(=O)c2cc(F)c(F)cc2Cl)[nH]n1 [Example 5-9] ? +

So what does the record say about vivo (hypoglycemic effect in db/db mice) for O=C(NCc1cnccn1)c1cc(NC(=O)c2cc(F)c(F)cc2Cl)[nH]n1 [Example 5-42] ? +

So what does the record say about vivo (hypoglycemic effect in db/db mice) for O=C(NCc1ccnc(C(=O)NN2CCOCC2)c1)c1cc(NC(=O)c2cc(F)c(F)cc2Cl)[nH]n1 [Example 5-14] ? +

So what does the record say about vivo (hypoglycemic effect in db/db mice) for COc1ccnc(CNC(=O)c2cc(NC(=O)c3cc(F)c(F)cc3Cl)[nH]n2)c1OC [Example 1-59] ? ++
